Assignment: determine reported Ratio for the given compounds.
Assay: Ratio value, Optimal dose / Minimum effective dose
Assay type: functional

Problem: Return reported Ratio. Input compound: `CO[C@@]12[C@H](COC(N)=O)C3=C(C(=O)C(C)=C(N)C3=O)N1C[C@@H]1N[C@@H]12`
Result: 24

Problem: # return recorded Ratio for entry CO[C@@]12C(COC(N)=O)C3=C(C(=O)C(C)=C(NCCNCCO)C3=O)N1CC1NC12 (stereo partly specified)
Result: 1

Problem: Dear colleague, please send me the reported Ratio for CO[C@@]12C(COC(N)=O)C3=C(C(=O)C(C)=C(N(CCN)CCN)C3=O)N1CC1NC12 (stereo partly specified) when you can.
Result: 8

Problem: Give Ratio for CO[C@@]12C(COC(N)=O)C3=C(C(=O)C(C)=C(NCCc4c[nH]cn4)C3=O)N1CC1NC12 (stereo partly specified)
Result: 16

Problem: For the compound CO[C@@]12C(COC(N)=O)C3=C(C(=O)C(C)=C(NCCNc4ccc([N+](=O)[O-])cn4)C3=O)N1CC1NC12 (stereo partly specified) , give its measured Ratio value.
Result: 8

Problem: Give recorded Ratio. CO[C@@]12C(COC(N)=O)C3=C(C(=O)C(C)=C(N(C)CCc4ccccn4)C3=O)N1CC1NC12 (stereo partly specified)
Result: > 64

----------
Assay: Partition coefficient (logP)
Format: physicochemical
Settings: octanol/water
Provide the reported logP of each item.
Please state the value as a number alone, without comment.

Problem: Check the records and state logP for CO[C@@]12C(COC(N)=O)C3=C(C(=O)C(C)=C(NCc4ccccn4)C3=O)N1CC1NC12 (stereo partly specified)
Result: -0.09

Problem: State, in one line, measured logP of CO[C@@]12C(COC(N)=O)C3=C(C(=O)C(C)=C(NCCCN)C3=O)N1CC1NC12 (stereo partly specified)
Result: -1.3

Problem: Provide only the value of recorded logP for CO[C@@]12C(COC(N)=O)C3=C(C(=O)C(C)=C(NCCNCCN)C3=O)N1CC1NC12 (stereo partly specified)
Result: -1.14

Problem: Note down logP recorded for CO[C@@]12C(COC(N)=O)C3=C(C(=O)C(C)=C(NCCNCCO)C3=O)N1CC1NC12 (stereo partly specified)
Result: -0.57

Problem: Answer with the recorded logP of CO[C@@]12C(COC(N)=O)C3=C(C(=O)C(C)=C(NCCCN(CCO)CCO)C3=O)N1CC1NC12 (stereo partly specified) only.
Result: -0.36

Problem: Let me know recorded logP for CO[C@@]12C(COC(N)=O)C3=C(C(=O)C(C)=C(NCCc4ccncc4)C3=O)N1CC1NC12 (stereo partly specified) , thanks.
Result: 0.31

Problem: Please give measured logP of the following entry: CO[C@@]12C(COC(N)=O)C3=C(C(=O)C(C)=C(NCCc4c[nH]cn4)C3=O)N1CC1NC12 (stereo partly specified)
Result: -0.19

Problem: Tell me measured logP for CO[C@@]12C(COC(N)=O)C3=C(C(=O)C(C)=C(NCCOCCO)C3=O)N1CC1NC12 (stereo partly specified) please.
Result: -0.71

Problem: Complete the entry with logP for CO[C@@]12C(COC(N)=O)C3=C(C(=O)C(C)=C(N(C)CCc4ccccn4)C3=O)N1CC1NC12 (stereo partly specified)
Result: 0.37

Problem: For CO[C@@]12C(COC(N)=O)C3=C(C(=O)C(C)=C(NCCNc4ccc([N+](=O)[O-])cn4)C3=O)N1CC1NC12 (stereo partly specified) , write its logP.
Result: 0.77

Problem: Determine from records and report logP for CO[C@@]12C(COC(N)=O)C3=C(C(=O)C(C)=C(NCCc4ccccn4)C3=O)N1CC1NC12 (stereo partly specified)
Result: -0.09

----------
Assay: Ratio value, Optimal dose / Minimum effective dose
Assay type: functional
endpoint label: Ratio
Reply briefly: the number, and no unit.

Problem: Supply measured Ratio of CO[C@@]12C(COC(N)=O)C3=C(C(=O)C(C)=C(NCCc4ccccn4)C3=O)N1CC1NC12 (some centres undefined) in your reply.
Result: 128

Problem: Given CO[C@@]12C(COC(N)=O)C3=C(C(=O)C(C)=C(NCCCCN=C(N)N)C3=O)N1CC1NC12 (some centres undefined) , respond with its Ratio.
Result: 16

Problem: Fill in Ratio for record CO[C@@]12C(COC(N)=O)C3=C(C(=O)C(C)=C(NCCCN(CCO)CCO)C3=O)N1CC1NC12 (some centres undefined)
Result: 1

Problem: Query Ratio for CO[C@@]12C(COC(N)=O)C3=C(C(=O)C(C)=C(NCCc4ccco4)C3=O)N1CC1NC12 (some centres undefined)
Result: 16

Problem: Give a short answer stating reported Ratio for CO[C@@]12C(COC(N)=O)C3=C(C(=O)C(C)=C(NCCc4ccncc4)C3=O)N1CC1NC12 (some centres undefined) .
Result: 8

Problem: Fill in Ratio for record CO[C@@]12C(COC(N)=O)C3=C(C(=O)C(C)=C(NCC(O)CO)C3=O)N1CC1NC12 (some centres undefined)
Result: 4

Problem: Annotate the molecule CO[C@@]12C(COC(N)=O)C3=C(C(=O)C(C)=C(NCCOCCO)C3=O)N1CC1NC12 (some centres undefined) with its measured Ratio.
Result: 64

Problem: Specify Ratio for CO[C@@]12C(COC(N)=O)C3=C(C(=O)C(C)=C(NCc4ccccn4)C3=O)N1CC1NC12 (some centres undefined) and stop.
Result: 16

Problem: Assign Ratio to the following record: CO[C@@]12C(COC(N)=O)C3=C(C(=O)C(C)=C(NCCCN)C3=O)N1CC1NC12 (some centres undefined)
Result: 4

Recorded values, source ChEMBL document CHEMBL1123440.
